%Inh: recorded values
Test system: RPS6KA4(Kin.Dom.2-C-terminal)
Details: concentration: 1 μM,replicates: in singlicate; n = 1;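 also: KINOMEscan kinase panel screen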
Note: unit % is implicit; provide only the numeric part.

Cc1cccc(-c2nc(Nc3ccncc3)c3sccc3n2)n1 [GW869641]; 7
COC(=O)Nc1nc2cc(Oc3ccc(NC(=O)Nc4cc(C(F)(F)F)ccc4Cl)cc3)ccc2[nH]1.Cl [GW697465]; 0
Cn1ccc2ncnc(Oc3ccc(NC(=O)Nc4cnn(C(C)(C)C)c4)c(Cl)c3)c21; 5
Cn1cc(-c2cccc3c(N)c(C(N)=O)nnc23)cn1; 30
COc1cc(Nc2nccc(N3CCC(NC(=O)c4cccc(C#N)c4)C3)n2)cc(OC)c1OC (centres unmarked) [GSK1379751]; 0
COc1ccc(Nc2nccc(N3CCC(NC(=O)c4cccc(C#N)c4)C3)n2)cc1 (centres unmarked) [GSK1379730]; 0
Cl.Cl.NC[C@H](CC1CCCCC1)NC(=O)c1ccc(-c2ccnc3[nH]ccc23)s1 [GSK1581428]; 79
O=C(NCC1CC1)c1ccc(-c2cc(C(=O)NC3CC3)ccc2F)cc1 [GW810445]; 0
FC(F)(F)c1cc(Br)cc(Nc2nccc(-c3cnn4ncccc34)n2)c1 [GW810578]; 0
CC(C)S(=O)(=O)N1CCN(Cc2ccc3c(c2)nc(NC(=O)c2ccsc2)n3C[C@H](O)c2ccccc2)CC1 [GW635815]; 0

Now, please, on to the next compound.
Return reported %Inh; argument: CN(c1ccc2c(c1)nc(NCc1ccc(F)cc1)n2C)c1ccnc(Nc2ccc(CS(C)(=O)=O)cc2)n1.Cl [GW813244]
0

###

Tested on: EPHA5
Conditions: concentration: 1 μM,replicates: in singlicate; n = 1
Measure: %Inh (%)
Give just the numeric value; % need not be written.

# count of solved cases: 2
Cc1cccc2c(-c3ccncc3)c(-c3ccc(F)cc3)nn12.Cl; 0
COC(=O)Nc1nc2cc(Oc3ccc(NC(=O)Nc4cc(C(F)(F)F)ccc4Cl)cc3)ccc2[nH]1.Cl; 37

# %Inh lookup, item O=C(NOCC1CC1)c1cc(Br)c(F)c(F)c1Nc1ccc(I)cc1Cl
0

// query: c1ccc(Oc2ccc(Nc3ccnc4ccc(-c5ccccn5)cc34)cc2)cc1
90.6

Now try CN(c1ccc2c(c1)nc(NCc1ccc(F)cc1)n2C)c1ccnc(Nc2ccc(CS(C)(=O)=O)cc2)n1.Cl .
0

# iterate: O=C(Nc1cccc(C(F)(F)F)c1)c1cccc(Oc2ccc3nccn3n2)c1
11

And what about the molecule CCCC(=O)Nc1n[nH]c2ncccc12 ?
0

Queued: COc1ccc(Nc2nccc(N3CCC(NC(=O)c4cccc(C#N)c4)C3)n2)cc1 (stereo not drawn)
12

What about this molecule? O=c1[nH]cc(-c2ccc(O)cc2)c2sc(-c3ccncc3)cc12
0

###

%Inh values for the compounds below.
System: MST1
Construct: gene STK4
Conditions: concentration: 1 μM,replicates: in singlicate; n = 1
Kindly answer with a numeric value in %, unit omitted.

Illustrative cases are given below, each with its answer.
Cn1ccc2ncnc(Oc3ccc(NC(=O)Nc4cccc(C(F)(F)F)c4)c(F)c3)c21; 0
CC(C)S(=O)(=O)N1CCN(Cc2ccc3c(c2)nc(NC(=O)c2ccsc2)n3C[C@H](O)c2ccccc2)CC1; 5
O=C(Nc1cccc(C(F)(F)F)c1)c1cccc(Oc2ccc3nccn3n2)c1; 29

// below: %Inh requested for another compound
I am curious: what %Inh value has been reported for CN(c1ccc2c(c1)nc(NCc1ccc(F)cc1)n2C)c1ccnc(Nc2ccc(CS(C)(=O)=O)cc2)n1.Cl ?
16

###

Tested on: TLK2
Conditions: concentration: 1 μM,replicates: in singlicate; n = 1
Measure: %Inh (%)
# unit: % | format: bare number

See these solved cases before continuing.
COc1cc(Nc2nccc(N3CCC(NC(=O)c4cccc(C#N)c4)C3)n2)cc(OC)c1OC (stereo not drawn); 0
NC(=O)c1ccc(-c2cc3ncnc(SCC(=O)O)c3s2)cc1; 0
Cn1ccc2ncnc(Oc3ccc(NC(=O)Nc4cc(C(C)(C)C)on4)c(Cl)c3)c21; 0
OCCn1cc(-c2cnc3nnn(Cc4ccc5ncccc5c4)c3n2)cn1; 0
C[C@@H]1CCN(C(=O)N2CCCC2)C[C@@H]1N(C)c1ncnc2[nH]ccc12; 0

Entry O=c1[nH]cc(-c2ccc(O)cc2)c2sc(-c3ccncc3)cc12 has what %Inh?
0

Cool, now COc1cc2nccc(Nc3ccc(Oc4ccccc4)cc3)c2cc1OC.Cl
0

Same read-out for CS(=O)(=O)Nc1ccc(-c2ccnc3[nH]ccc23)cc1 ?
63

Query O=C(NOCC1CC1)c1cc(Br)c(F)c(F)c1Nc1ccc(I)cc1Cl next
0

What do you have for Cc1ccc(Nc2ccnc(Nc3ccc4c(c3)CS(=O)(=O)C4)n2)cc1O.Cl ?
35

Now the compound CC(C)S(=O)(=O)N1CCN(Cc2ccc3c(c2)nc(NC(=O)c2ccsc2)n3C[C@H](O)c2ccccc2)CC1
0

Now give it for Cc1cccc2c(-c3ccncc3)c(-c3ccc(F)cc3)nn12.Cl too.
2

Proceed to COc1cccc(OC)c1C(=O)Nc1cccc(-c2nn3ccccc3c2-c2ccnc(Nc3cccc(F)c3)n2)c1
0

Now try Cn1ccc2ncnc(Oc3ccc(NC(=O)Nc4cnn(C(C)(C)C)c4)c(Cl)c3)c21 .
0

Also need Cl.Nc1n[nH]c2cc(-c3ccccn3)ccc12 , thanks.
0

CC(C)c1nc(-c2cccc(NS(=O)(=O)c3ccccc3)c2)c(-c2ccnc(Nc3ccc4c(c3)CN(C)CC4)n2)s1 ?
33

// repeat for COC(=O)c1cccc(NC(=O)NC2CCN(c3ccnc(NCc4ccc(F)cc4)n3)CC2)c1 and report
0

How about this compound: Cn1ccc2ncnc(Oc3ccc(NC(=O)Nc4cccc(C(F)(F)F)c4)c(F)c3)c21
2

###

Tested on: MAST1
Settings: concentration: 1 μM,replicates: in singlicate; n = 1
Cut-off 3% on %Inh: below means TRUE, at or above means FALSE.

Consider the following illustrative entries.
Cn1ccc2ncnc(Oc3ccc(NC(=O)Nc4ccnc(C(F)(F)F)c4)c(Cl)c3)c21; TRUE
O=C(Nc1n[nH]c2cc(-c3ccco3)ccc12)C1CC1 [SB-737447]; FALSE
Cl.Cl.NC[C@H](CC1CCCCC1)NC(=O)c1ccc(-c2ccnc3[nH]ccc23)s1 [GSK1581428]; TRUE
N#Cc1cccc(C(=O)NC2CCN(c3ccnc(Nc4ccc(F)cc4)n3)C2)c1 (stereo not drawn) [GSK1379708]; TRUE
Cc1ccc2c(-c3ccnc(Nc4ccc(C(F)(F)F)cc4)n3)cnn2n1 [GW819776]; FALSE

Please indicate whether the reported %Inh of CS(=O)c1ccc(-c2coc3ccc(-c4n[nH]c(=O)o4)cc23)cc1 (stereo not drawn) is strictly below 3%.
FALSE

// same read-out, input: O=C(Nc1ccccc1)c1cccc(Oc2ccc3nccn3n2)c1
TRUE

Input Cc1ccc(CC(=O)N2CCc3cc(-c4cn(C)c5ncnc(N)c45)ccc32)cc1 [GSK2634758]
FALSE

###

Catalogue of %Inh values
Tested on: AAK1
Details: concentration: 1 μM,replicates: in singlicate; n = 1
I only need the number, in %, no unit after it.

CN1CCN(CCCNc2nccc(-c3c(-c4ccc(F)cc4)nn4cc(C(N)=O)ccc34)n2)CC1; 33
Cn1ccc2ncnc(Oc3ccc(NC(=O)Nc4cc(C(C)(C)C)on4)c(Cl)c3)c21; 18

Which %Inh is reported for this compound? O=C(Nc1n[nH]c2cc(-c3ccco3)ccc12)C1CC1
100

###

System: FLT3
Conditions: concentration: 1 μM,replicates: in singlicate; n = 1
Measure: %Inh
Hey, just the number and the unit after it is fine.

FC(F)(F)c1cc(Br)cc(Nc2nccc(-c3cnn4ncccc34)n2)c1; 95.7%
COc1cc2c(Nc3ccc(NC(=O)c4ccccc4)cc3)ncnc2cc1OCCCN1CCOCC1; 35%
CCN1CCN(CCCC(=O)Nc2n[nH]c3nc(-c4ccc(O)cc4)c(Br)cc23)CC1; 61%
Cn1ccc2ncnc(Oc3ccc(NC(=O)Nc4cnn(C(C)(C)C)c4)c(Cl)c3)c21; 99.2%
CCOC(=O)N1CCC(n2cnc(-c3ccc(F)cc3)c2-c2ccnc(N)n2)CC1; 24%
Cn1ccc2ncnc(Oc3ccc(NC(=O)Nc4cc(C(C)(C)C)on4)c(Cl)c3)c21; 99.9%

Item C[C@@H](Oc1cc(-n2cnc3cc(-c4cnn(C)c4)ccc32)sc1C(N)=O)c1ccccc1Cl has what recorded %Inh?
99.4%

O=C(NCC1CC1)c1ccc(-c2cc(C(=O)NC3CC3)ccc2F)cc1 , same question.
12%

Lookup c1ccc(Oc2ccc(Nc3ccnc4ccc(-c5ccccn5)cc34)cc2)cc1
0%

Moving on to the next compound: CSc1nccc(-c2c(-c3ccc(F)cc3)ncn2CCCN2CCOCC2)n1.Cl
0%

Could you do the same for CCNCC(Cc1ccccc1)NC(=O)c1cc(Br)c(-c2ccnc3[nH]ccc23)s1.Cl.Cl (centres unmarked) , please?
69%

Can you handle CS(=O)(=O)Nc1ccc(-c2ccnc3[nH]ccc23)cc1 next?
74%
